Assay: HCV replicon assay (luciferase reporter, ET cell line)
Format: cell-based
Settings: Hepatitis C virus, HCV replicon luciferase activity in ET cells
test.readout: inhibition at 10 µM (%)
Only the number, expressed in %, is required.

Examples with their reported inhibition at 10 µM follow.
> print(dat)
                                   compound  u  observed
1  COc1cc(-c2ccccc2)cc2cc(C(=O)NCc3cccs3)nn12  %      25.8
2  O=C(c1cn2cc(-c3ccoc3)cc(C(F)(F)F)c2n1)N1CCC(c2ccc(F)cc2)C1 (stereo not shown)  %      93.4
3  Cc1cc(-c2ccccc2)cc2cc(C(=O)NCc3cccs3)nn12  %      37.9
4  O=C(NCc1ccc(-c2ccccn2)s1)c1nc2c(C(F)(F)F)cc(-c3ccco3)cn2c1Cl  %      25.4
5  O=C(NC(c1ccccc1)c1ccccn1)c1nc2c(C(F)(F)F)cc(-c3ccoc3)cn2c1Cl (stereo not shown)  %      99.1

Now examine the next entry.
Query string: Any idea what inhibition at 10 µM was measured for O=C(c1nc2c(C(F)(F)F)cc(-c3cc[nH]c3)cn2c1Cl)N1CCC(c2cccc(F)c2)C1 (stereo not shown) ?
Result string: 91

Every entry's value here was drawn from patent US20120121540A1.
